System: CCRIS mutagenicity, Ames/micronucleus/aberration tests
Assay: CCRIS mutagenicity studies
Conditions: Test System: AMES SALMONELLA TYPHIMURIUM; Strain/Indicator: TA100; Metabolic Activation: NONE; Method: STANDARD PLATE
Active and inactive are the calls of the source. How the calls were made is not given here.
quantity: mutagenic call

Guide cases for mutagenic call, answers given:
>  <molecule>
O=[N+]([O-])c1ccc2ccc3cc4ccccc4c4ccc1c2c34

>  <endpoint result>
active; positive

$$$$
>  <molecule>
O=C1C=CC(=O)N1c1ccc(Cc2ccc(N3C(=O)C=CC3=O)cc2)cc1

>  <endpoint result>
inactive; negative

$$$$
>  <molecule>
OC1CC=Cc2cccnc21 (configuration not stated)

>  <endpoint result>
inactive; negative

$$$$
>  <molecule>
Cc1cc(O)c2c(c1)C(=O)c1cccc(O)c1C2=O

>  <endpoint result>
inactive; negative

$$$$
>  <molecule>
O=[N+]([O-])c1ccc(Nc2ccc(N=C=S)cc2)cc1

>  <endpoint result>
inactive; negative

$$$$
>  <molecule>
O=[N+]([O-])c1ccc2sncc2c1

>  <endpoint result>
active; positive

$$$$

Exercise: Which mutagenic call value belongs to CCOCC1CO1 (configuration not stated) ?
Key: active; positive
